Target: T1, recombinant human heparanase (active, 8 and 50 kDa sub-units, from baculovirus-infected Hi5 cells) (human, UniProt Q9Y251 36-109; Q9Y251 158-543)
T1 sequence (looked up) 1: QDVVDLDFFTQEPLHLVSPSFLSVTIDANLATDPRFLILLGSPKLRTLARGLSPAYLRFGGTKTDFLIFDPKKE
T1 sequence (looked up) 2: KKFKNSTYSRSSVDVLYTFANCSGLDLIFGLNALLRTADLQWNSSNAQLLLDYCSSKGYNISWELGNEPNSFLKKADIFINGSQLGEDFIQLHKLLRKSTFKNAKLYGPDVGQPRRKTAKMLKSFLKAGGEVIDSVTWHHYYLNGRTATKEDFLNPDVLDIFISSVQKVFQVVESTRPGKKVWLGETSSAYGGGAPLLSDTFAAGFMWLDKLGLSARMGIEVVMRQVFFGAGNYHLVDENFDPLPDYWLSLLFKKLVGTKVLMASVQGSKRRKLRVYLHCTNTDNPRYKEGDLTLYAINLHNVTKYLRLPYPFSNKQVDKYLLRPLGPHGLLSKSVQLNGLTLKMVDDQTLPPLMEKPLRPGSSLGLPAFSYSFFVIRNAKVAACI
Assay: cell-based or functional assay
property: Inhibition of recombinant human heparanase %, Assay 2 (%)
Field format: number, assumed %, no unit text.

binder	value-reported
monoclonal antibody 14H12.3 (antibody, V domains shown, Fully human (XenoMouse) antibody) VH: QVQLVESGGGVVQPGRSLRLSCAASGFTFSSYGMHWVRQAPGKGLEWVAVIWYDGSNKDYADSVKGRFTISRDNSKNTLYLQMNSLRAEDTAVYYCAREGSTSWTDYYGMDVWGQGTTVTVSS VL: SYELTQPPSVSVSPGQTARITCSGDALPKRYAYWYQQKSGQALVLVIYEDSKRPSGIPERFSGSSSGTMATLTISGAQVEDEADYYCYSIDSSGNHGVFGGGTKLTVL	85
monoclonal antibody 7B9.1 (antibody, V domains shown, Fully human (XenoMouse) antibody) VH: QVQLVESGGGVVQPGRSLRLSCAASGFTFSSYGMHWVRQAPGKGLEWVAVIWYDGSNKYYADSVKGRFTISRDNSKNTLYLQMNSLRAEDTAVYYCAREGAPYSSSDAFDIWGQGTMVTVSS VL: QSVLTQPPSVSGAPGQRVTISCTGSSSNIGANYDVHWYQQLPGTAPKLLIYGDNNRPSGVPDRFSGSKSGTSASLAITGLQAEDEADYYCQSYDSSLSGSVFGGGTKLTVL	54
monoclonal antibody 15A1.2 (antibody, V domains shown, Fully human (XenoMouse) antibody; also called ATCC PTA-9491) VH: QVQLVQSGAEVKKPGASVKVSCKVSGYTLTELSMHWVRQAPGKGLEWMGGFDPEDGETIFAQKFQGRVTMTEDTSTDTAYMELSSLRSEDTAVYYCATGLRFLEWFLWGWDVWGQGTTVTVSS VL: DIQMTQSPSSVSASVGDRVTITCRASQGISNWLAWYQQTPGKAPQLLIYGASSLQSGVPSRFSGSGSGTDFTLTISSLQPEDFATYYCQQADSFPPTFGQGTKVEIK	91

In the following, a different binder is considered.
// query Which Inhibition of recombinant human heparanase %, Assay 2 reading was recorded for the binder monoclonal antibody 10E9.1 (antibody, V domains shown, Fully human (XenoMouse) antibody; also called mAb 10E9.1; ATCC PTA-9489) VH: QVQLVQSGAEVKKPGASVKVSCKVSGYSLTELSIHWVRQAPGKGLEWMGGFDPEDGEIIFAQKFQGRVTLTEDISLDTAYMEVSSLRSEDTAVYYCATEGHDSGDYVGYYYYGLDVWGQGTTVTVSS VL: DIQMTQSPSSLSASVGDRVTITCRASQDIRNFLAWYQQKPGKLPKLLIYAASTLQSGVPSRFSGSGSGTDFTLTISSLQPEDVASYYCQSHNSVPFTFGPGTKVDIR ?
// result 99
